Each entry below carries its recorded pIC50.
Test system: HC-1;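 also: growth inhibition of HC-1 cells measured by a cell viability assay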
Assay: cells
Type: functional, cell-based
Conditions: Homo sapiens
Description: SANGER: Inhibition of human HC-1 cell growth in a cell viability assay.
Note: pIC50 values are expressed as the negative base-10 logarithm of concentration in M.

Known results for compounds:
1) CC[C@]1(O)C[C@@H]2CN(CCc3c([nH]c4ccccc34)[C@@](C(=O)OC)(c3cc4c(cc3OC)N(C)[C@H]3[C@@](O)(C(=O)OC)[C@H](OC(C)=O)[C@]5(CC)C=CCN6CC[C@]43[C@@H]65)C2)C1 [VINBLASTINE]    8.38
2) NC(=O)c1ncn([C@@H]2O[C@H](COP(=O)(O)O)[C@@H](O)[C@H]2O)c1N    2.93

Query compound follows.
// sample CO[C@@]12[C@H](COC(N)=O)C3=C(C(=O)C(C)=C(N)C3=O)N1C[C@@H]1N[C@@H]12 [MITOMYCIN] , its pIC50 was 6.81
